- Test system: U-251
- PROCEDURE_TEXT: NCI tumour cell line growth inhibition, 48 h
Active and inactive are the calls of the source. Rule as the data show it: active = GI50 up to about 1.1 µM and inactive = higher.
Select the matching outcome among t (active), f (inactive)

[in] // outcome(item) with item = COc1cc(CNNC(N)=S)cc(OC)c1OC
[out] f

[in] Now consider COc1ccc(/C=C(\C#N)c2nc(-c3cc4ccccc4oc3=O)cs2)cc1 and answer again.
[out] f

[in] Now consider NC(=O)c1cn(C2OC(CO)C(O)C2O)c(=O)[nH]c1=O (stereo not given) and answer again.
[out] f

[in] Now consider CC1=Nc2ccccc2C12C(c1ccccc1)C(c1ccccc1)C(=O)N1c3ccccc3CC12 (stereo not given) and answer again.
[out] f

[in] Now consider CCCC(=O)O[C@H]1C=C2C[C@@]34SS[C@]5(CC6=C[C@H](OC(C)=O)[C@@H]7O[C@@H]7[C@H]6N5C3=O)C(=O)N4[C@@H]2[C@H]2O[C@H]21 and answer again.
[out] t

[in] Now consider C=C(Nc1ccc(OC)cc1OC)C(=O)Cc1cccc[n+]1[O-] and answer again.
[out] f

[in] Now consider Cc1[nH]c2c(c1Cc1ccccc1)C1=NC=C(O)NN1C=N2 and answer again.
[out] f

[in] Now consider CCOC(=O)C1C(=O)CN2CCc3c([nH]c4ccccc34)C12C(=O)OCC (stereo not given) and answer again.
[out] f

[in] Now consider CO[C@H](C(=O)O[C@H]1C(=O)N2CCC3CCC1C32C)c1ccccc1 (stereo not given in full) and answer again.
[out] f

[in] Now consider CCOC(=O)c1nc2ccccc2n(CC)c1=O and answer again.
[out] f

[in] Now consider OCc1c(-c2cccc3ccccc23)sc(-c2cccc3ccccc23)c1CO and answer again.
[out] f

[in] Now consider O=C1/C(=C/c2ccco2)NC(=S)N1CN1CCOCC1 and answer again.
[out] f

[in] Now consider CC(C)C1=CC(=O)[C@@](C)(C2[C@H](O)C[C@@]3(C)[C@@H]4CC=C5[C@@H](CC[C@@H](OC6OCC(O)C(O)C6OC6OC(C)C(O)C(O)C6O)C5(C)C)[C@]4(C)C(=O)C[C@]23C)O1 (stereo not given in full) and answer again.
[out] f

[in] Now consider COc1cccc(/C=C\c2cc(OC)c(OC)c(OC)c2)c1 and answer again.
[out] t

[in] Now consider C=C(Cl)C(=C)CCC(Cl)C(C)C (stereo not given) and answer again.
[out] f

[in] Now consider CCOC(=O)/C=C(\C(=O)OCC)n1cc(C)c(=O)n(Cc2cnnn2CCCCOC(C)=O)c1=O and answer again.
[out] f

[in] Now consider O=c1c2ccccc2[nH]c(=S)n1-c1ccc(/N=N/c2cccc3cc(O)ccc23)cc1 and answer again.
[out] f

[in] Now consider Cc1cc(O)nc(NN2C(Cl)C(=O)C2c2cccc([N+](=O)[O-])c2)n1 (stereo not given) and answer again.
[out] f

[in] Now consider Nc1nc2cc(Cl)ccc2n1N and answer again.
[out] f

[in] Now consider Nc1nc(N)c2ncn(-c3ccccc3)c2n1 and answer again.
[out] f

###

What GI50 was measured for each of the following?
- Tested on: SK-MEL-2
- PROCEDURE_TEXT: NCI tumour cell line growth inhibition, 48 h
The source made the active and inactive calls. No stated cut-off is given here; in the data, active = GI50 up to about 1.1 µM and inactive = higher.

[in] Which GI50 is listed for CCOC(=O)C(Cc1cn(S(=O)(=O)c2ccc(C)cc2)cn1)P(=O)(OCC)OCC (stereo not given) ?
[out] > 100 µM (inactive)

[in] Now consider COc1ccc(C(=O)O)c(Cc2cccc3ccccc23)c1 and answer again.
[out] > 100 µM (inactive)

[in] Now consider CN1CCN=C1c1nnn(-c2ccc([N+](=O)[O-])cc2)c1-c1ccccc1 and answer again.
[out] > 100 µM (inactive)

[in] Now consider O=C1/C(=C/c2cccs2)N=C(c2ccccc2)N1C1Nc2cc3c(cc2S1)NC(N1C(=O)/C(=C/c2cccs2)N=C1c1ccccc1)S3 (stereo not given) and answer again.
[out] 18.6 µM (inactive)

[in] Now consider CCC(=O)C1(N2CCOCC2)CCN(CCCC(=O)c2ccc(F)cc2)CC1 and answer again.
[out] > 100 µM (inactive)

[in] Now consider [O-][S+]1SC(=S)C2C=CC=NC21 (stereo not given) and answer again.
[out] 19.4 µM (inactive)

[in] Now consider O=C1NC(=O)/C(=C/c2ccc(S(=O)(=O)N/N=C\C(O)C(O)C(O)C(O)CO)cc2)N1 (stereo not given) and answer again.
[out] > 100 µM (inactive)

[in] Now consider CCC(=O)OC1CCn2c1nc1c2C(=O)C(C)=C(NC(C)=O)C1=O (stereo not given) and answer again.
[out] 1.89 µM (inactive)

[in] Now consider CC(=O)NCCCCN(CCCNC(C)=O)C(=O)OCc1ccccc1 and answer again.
[out] > 100 µM (inactive)

[in] Now consider C/C=C/C(C#N)O[Si](C)(C)C (stereo not given) and answer again.
[out] > 100 µM (inactive)

###

- Test system: UO-31
- PROCEDURE_TEXT: NCI tumour cell line growth inhibition, 48 h
Active and inactive are the calls of the source. Rule as the data show it: active = GI50 up to about 1.1 µM and inactive = higher.
Select the matching outcome among active, inactive

[in] // outcome(item) with item = CC1(C)OCC[C@@H]1[Si](C)(C)C
[out] inactive

[in] Now consider CC(=O)N1C/C(=C\c2ccccc2)C(=O)/C(=C/c2ccccc2)C1 and answer again.
[out] inactive

[in] Now consider O=S1(=O)CCN(c2ccccc2CC(c2c[nH]c3ccccc23)c2c[nH]c3ccccc23)CC1 and answer again.
[out] inactive

[in] Now consider CC(C)(Br)C(Br)CCC1(C2CO2)CO1 (centres undefined) and answer again.
[out] inactive

[in] Now consider O=C1OC[C@@H]2Cc3c([nH]c4ccccc34)[C@@H](c3ccc(O)cc3)N12 and answer again.
[out] inactive

[in] Now consider CCOC(=O)c1ccc(C(=O)C(C(C)=O)C(=O)OC(C)(C)C)[nH]1 (centres undefined) and answer again.
[out] inactive

[in] Now consider CN(Cc1ccccc1)c1cc(=O)n(C)c(=O)[nH]1 and answer again.
[out] inactive

[in] Now consider Nc1ccn(C2OC(COC(=O)C34CC5CC(CC(C5)C3)C4)C(O)C2O)c(=O)n1 (centres undefined) and answer again.
[out] inactive

[in] Now consider N#Cc1ccccc1NC(=O)C(=O)C(C(=O)c1ccccc1-c1ccccc1)C1OC(=O)c2ccccc21 (centres undefined) and answer again.
[out] inactive

[in] Now consider CCCC(=O)O[C@H]1C=C2C[C@@]34SS[C@]5(CC6=C[C@H](OC(C)=O)[C@@H]7O[C@@H]7[C@H]6N5C3=O)C(=O)N4[C@@H]2[C@H]2O[C@H]21 and answer again.
[out] active

[in] Now consider O=C(NCCOC(=O)CCCCCCCCC(=O)OCCNC(=O)NC(=O)c1cn(Cc2ccccc2)c(=O)[nH]c1=O)NC(=O)c1cn(Cc2ccccc2)c(=O)[nH]c1=O and answer again.
[out] inactive

[in] Now consider O=C(OC(=C(c1ccccc1)c1ccccc1)N1CCCC1=S)C(c1ccccc1)c1ccccc1 and answer again.
[out] inactive

[in] Now consider CC1C(c2ccc(Cl)cc2)c2cc3c(cc2OC1N1CCOCC1)OCO3 (centres undefined) and answer again.
[out] inactive

[in] Now consider C#CCN(Cc1ccc2nc(-c3ccccc3)c(Cl)nc2c1)c1ccc(Cl)c(Cl)c1 and answer again.
[out] inactive

[in] Now consider CCOC(=O)CCC(NC(=O)c1ccc(/N=C/c2nc3ccccc3nc2-c2ccccc2)cc1)C(=O)OCC (centres undefined) and answer again.
[out] inactive

[in] Now consider O=C1NC(=O)/C(=C/c2ccc(S(=O)(=O)N/N=C\C(O)C(O)C(O)C(O)CO)cc2)N1 (centres undefined) and answer again.
[out] inactive

[in] Now consider COc1ccc(-c2cc(=O)c3c(OC)c(O)c(OC)cc3o2)cc1 and answer again.
[out] inactive

[in] Now consider COc1cccc(/C=C\c2cc(OC)c(OC)c(OC)c2)c1 and answer again.
[out] inactive

[in] Now consider CC(C)N1CCN(c2ccncc2S(=O)(=O)N2CCCCC2)CC1 and answer again.
[out] inactive

[in] Now consider CC1(C)OC(=O)[C@@](C)([C@H](O)c2ccccc2)O1 and answer again.
[out] inactive

[in] Now consider O=c1[nH]c2cc(C(F)(F)F)ccc2nc1C(F)(F)F and answer again.
[out] inactive

[in] Now consider O=C1/C(=N/N=C(c2ccccc2)c2ccccc2)c2ccccc2-c2ccccc21 and answer again.
[out] inactive

[in] Now consider COC(=O)[C@@H]1c2cc3c(c(O)c2[C@@H](OC2OC(C)C(OC)C(C)(OC)C2OC)C[C@]1(C)O)C(=O)c1c(O)cc2c(c1C3=O)O[C@H]1O[C@]2(C)[C@H](O)[C@@H](N(C)C)[C@@H]1O (some centres undefined) and answer again.
[out] active

[in] Now consider Nc1nc(N)nc(CCCc2nc(N)nc(N)n2)n1 and answer again.
[out] inactive

[in] Now consider Cc1ccc(-n2cnc3c(N)nc(N)nc32)cc1 and answer again.
[out] inactive

[in] Now consider CC1=C2c3c(C)ccc4ccc(C)c(c34)C2(O)C(C)C1=O (centres undefined) and answer again.
[out] inactive

[in] Now consider C/C(=C/c1c(C)[nH]c(=O)[nH]c1=O)C(=O)O and answer again.
[out] inactive

[in] Now consider CC(C)(/N=N/C(C)(C)C(=O)NCCO)C(=O)NCCO and answer again.
[out] inactive

[in] Now consider COC1=C(C(c2cc(OC)c(OC)c(OC)c2)c2cc3c(cc2OC)OCO3)C(=O)OC1 (centres undefined) and answer again.
[out] inactive

[in] Now consider COc1ccc2cc3c4cc(OC)c(OC)cc4ccn3c2c1 and answer again.
[out] inactive

[in] Now consider COc1cc([C@@H]2c3cc4c(cc3[C@@H](NCc3ccccc3)C3COC(=O)[C@@H]32)OCO4)cc(OC)c1O (some centres undefined) and answer again.
[out] inactive

[in] Now consider COC(=O)C(=O)C(C(=O)OC)C(=O)C(=O)Nc1cc(Cl)c(Cl)cc1Cl (centres undefined) and answer again.
[out] inactive

[in] Now consider OCc1c(-c2cccc3ccccc23)sc(-c2cccc3ccccc23)c1CO and answer again.
[out] inactive

[in] Now consider CCOC(=O)/C(=C\c1ccc(F)cc1)C(C)=O and answer again.
[out] inactive

[in] Now consider O=C(O)C1CC2C3CCC2C1C3=O (centres undefined) and answer again.
[out] inactive

[in] Now consider C#CCOC(=O)C(=[N+]=[N-])C(=O)CC(C)C and answer again.
[out] inactive

[in] Now consider CC(=O)OC1COC(n2c(N)c(C#N)c(C)c(C#N)c2=S)C(OC(C)=O)C1OC(C)=O (centres undefined) and answer again.
[out] inactive

[in] Now consider Cn1c(=O)c2c(nc(C(=N)SCC(=O)O)n2C)n(C)c1=O and answer again.
[out] inactive

[in] Now consider C=CC(=O)N1C/C(=C\c2ccc([N+](=O)[O-])cc2)C(=O)/C(=C/c2ccc([N+](=O)[O-])cc2)C1 and answer again.
[out] active
